- tested_system: human glucagon receptor (human) (UniProt P47871)
- Sequence (P47871 26-477): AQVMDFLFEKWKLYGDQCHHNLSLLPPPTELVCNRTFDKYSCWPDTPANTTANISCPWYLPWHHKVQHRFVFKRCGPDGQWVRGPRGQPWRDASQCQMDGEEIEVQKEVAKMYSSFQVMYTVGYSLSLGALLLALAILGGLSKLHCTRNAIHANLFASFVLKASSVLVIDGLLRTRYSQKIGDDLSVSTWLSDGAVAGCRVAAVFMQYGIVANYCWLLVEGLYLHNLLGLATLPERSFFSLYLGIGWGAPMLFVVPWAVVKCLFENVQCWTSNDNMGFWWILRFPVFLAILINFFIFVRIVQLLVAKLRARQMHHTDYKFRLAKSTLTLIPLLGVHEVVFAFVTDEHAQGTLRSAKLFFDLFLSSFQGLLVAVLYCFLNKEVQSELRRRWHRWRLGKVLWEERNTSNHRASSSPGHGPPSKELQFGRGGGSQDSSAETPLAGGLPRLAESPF
- assay: cell-based or functional assay
measured_endpoint: cAMP Rel EC50 (receptor-expressing HEK-293 cells, 1% HSA) (nM)
Give the number; nM is assumed, so skip it.

Below are worked cases with known answers.
[
  {
    "binder": "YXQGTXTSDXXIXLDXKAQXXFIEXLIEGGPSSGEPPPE (synthetic construct; SITE 2: note = 2-Aminoisobutyric Acid; SITE 6: note = alpha-methyl-2-fluoro-L-phenylalanine; SITE 10: note = 3-(4-Pyridyl)-L-alanine; SITE 11: note = alpha-methyl-L-serine; SITE 13: note = alpha-methyl-leucine; SITE 16: note = L-ornithine; SITE 17: note = Lysine is chemically mo) [Example 453]",
    "value_unit": "nM",
    "measured_value": 261
  },
  {
    "binder": "YXQGTXTSDXXIXLDXKAQXXFIEXLIEGGPSSGEPPPEEG (synthetic construct; SITE 2: note = 2-Aminoisobutyric Acid; SITE 6: note = alpha-methyl-2-fluoro-L-phenylalanine; SITE 10: note = 3-(4-Pyridyl)-L-alanine; SITE 11: note = alpha-methyl-L-serine; SITE 13: note = alpha-methyl-leucine; SITE 16: note = L-ornithine; SITE 17: note = Lysine is chemically mo) [Example 462]",
    "value_unit": "nM",
    "measured_value": 183
  }
]

Lookup: Name the recorded cAMP Rel EC50 (receptor-expressing HEK-293 cells, 1% HSA) for YXQGTXTSDXXIXLDXKAQXNFIEYLIEGGPSSGEPPPEGE (synthetic construct; SITE 2: note = 2-Aminoisobutyric Acid; SITE 6: note = alpha-methyl-2-fluoro-L-phenylalanine; SITE 10: note = 3-(4-Pyridyl)-L-alanine; SITE 11: note = alpha-methyl-L-serine; SITE 13: note = alpha-methyl-leucine; SITE 16: note = L-ornithine; SITE 17: note = Lysine is chemically mo) [Example 483] .
Found: 231
